# assay.target: FAAH (Rattus norvegicus, UniProt P97612)
# Construct: Preparation of Rat Brain Membranes Preparations (FAAH Enzyme Solution); from tissue; host or cells: rat cerebrum (brain membrane preparation)
# Sequence (P97612 1-579): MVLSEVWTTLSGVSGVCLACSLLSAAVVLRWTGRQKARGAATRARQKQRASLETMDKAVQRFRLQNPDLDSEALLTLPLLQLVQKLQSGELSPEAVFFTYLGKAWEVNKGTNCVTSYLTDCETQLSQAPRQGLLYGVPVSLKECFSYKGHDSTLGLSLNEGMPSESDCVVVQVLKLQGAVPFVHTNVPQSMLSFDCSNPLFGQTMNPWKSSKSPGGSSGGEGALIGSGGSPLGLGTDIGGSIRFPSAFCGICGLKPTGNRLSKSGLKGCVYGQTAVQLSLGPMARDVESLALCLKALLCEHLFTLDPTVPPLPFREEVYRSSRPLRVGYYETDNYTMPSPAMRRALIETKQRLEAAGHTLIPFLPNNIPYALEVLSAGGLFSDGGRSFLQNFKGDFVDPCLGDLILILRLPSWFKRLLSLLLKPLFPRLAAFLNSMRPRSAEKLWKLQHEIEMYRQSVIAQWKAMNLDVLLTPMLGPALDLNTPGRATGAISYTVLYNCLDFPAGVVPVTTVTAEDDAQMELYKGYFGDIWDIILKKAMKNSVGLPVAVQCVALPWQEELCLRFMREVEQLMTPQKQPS
# measurement.description: Determination of FAAH inhibitory activity in rat (rat brain membrane preparations, [3H]-anandamide hydrolysis)
# Format: biochemical
# test.parameters: rat brain membrane preparations; test substance 0.1 nM to 1 μM; read-out: FAAH Inhibition IC50
pIC50: −log10 of the molar value.
observed.property: pIC50

>  <mol.smiles>
Cn1c(=O)n(C(=O)N2CCCC2)c2cnc(/C=C/c3ccc(C(F)(F)F)cc3)nc21

>  <assay.target>
FAAH (Rattus norvegicus, UniProt P97612)

>  <pIC50>
7.07

$$$$

A: Cn1c(=O)n(C(=O)N2CCC2)c2nc(COc3ccccc3)ncc21
B: CCN(C)C(=O)n1c(=O)n(C)c2nc(-c3ccccc3)ncc21
(Q) Choose between A and B : whose measured pIC50 value is numerically larger? Your choice should be expressed through its label.
(A) B
(B: 8.00, A: 6.83)

1: CN(C)C(=O)n1c(=O)n(C)c2cnc(-c3cccc(OC(F)F)c3)nc21
2: CCCOc1ccc(CCc2ncc3c(n2)n(C(=O)N(C)C)c(=O)n3C)cc1
(Q) Please compare: 1 and 2 . Report which one has the smaller pIC50 value. Respond with the label that goes with your answer.
(A) 1
(1: 7.48, 2: 8.00)

Every entry's value here was drawn from patent US8735406B2.
